# METHOD NOTES: Cytometry Cell-Based qHTS for Inhibitors of the mTORC1 Signaling Pathway in MEF cells (AID 2668);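 further: Tsc2-/- p53-/- mouse embryonic fibroblasts stably re-expressing wild-type Tsc2; percent cells positive for phospho-rpS6 Ser235/236 relative to propidium iodide stain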
# TEST SETTINGS: mTORC1 pathway readout; series mostly up to 38.3 µM
Inconclusive results are not listed. Activity calls are given as the source filed them. The call rests on the fitted dose curve; in most records, active means well fitted inhibition curve with a large enough effect; inconclusive means small, poorly fitted or top-dose-only effect; inactive means flat fitted curve, though single readings scatter.
Would you mind answering with one of these outcomes? True = active, False = inactive

Observe how each entry below is paired with its result.
# MOLECULE, LABEL
data = [
    ("O=C1c2c(O)cc(O)cc2OC(c2ccc(O)c(O)c2)C1O (centres undefined)", "False"),
    ("O=c1ccc2ccc(O)c(O)c2o1", "False"),
    ("NCCCCNCCCN", "False"),
]

Request: # lookup: test call for NNc1nncc2ccccc12
Result: False

Request: Similarly, Nc1nc(OCc2ccccc2)c2[nH]cnc2n1 ?
Result: False

Request: Similarly, COc1cc2nc(N3CCN(C(=O)C4CCCO4)CC3)nc(N)c2cc1OC (centres undefined) ?
Result: False

###

# METHOD NOTES: qHTS of pediatric cancer cell lines to identify multiple opportunities for drug repurposing: Confirmatory screen for MG 63 (6-TG R) cells (AID 1347119); further: nearly all actives have a fitted effect of over 55% in size
# TEST SETTINGS: MG-63 (6-TG resistant) osteosarcoma viability; series mostly up to 45.9 µM
Results filed as inconclusive are left out. Activity calls are given as the source filed them. The call rests on the fitted dose curve; in most records, active means well fitted cell-killing curve with a large enough effect; inconclusive means small, poorly fitted or top-dose-only effect, or effect the other way; inactive means no such curve, though single readings can be large or run the other way.
Would you mind answering with one of these outcomes? YES (active), NO (inactive)

Observe how each entry below is paired with its result.
# MOLECULE, LABEL
rows = [
    ("CCCOc1ccc2nc(NC(=O)OC)[nH]c2c1", "YES"),
    ("O=C(NCC1CCCCN1)c1cc(OCC(F)(F)F)ccc1OCC(F)(F)F (stereo not given)", "NO"),
    ("c1cnc2cc3c(cc2n1)C1CNCC3C1", "NO"),
    ("CCCCc1ccc2nc(NC(=O)OC)[nH]c2c1", "YES"),
    ("Cc1ccc(NC(=O)c2ccc(CN3CCN(C)CC3)cc2)cc1Nc1nccc(-c2cccnc2)n1", "NO"),
]

Next up:
Request: # lookup: test call for Nc1ncn([C@H]2C[C@H](O)[C@@H](CO)O2)c(=O)n1
Result: NO

###

# System: MKL-1
# METHOD NOTES: qHTS assay to identify novel small-molecules to repurpose for Merkel cell carcinoma treatment (AID 1296009); further: nearly all actives have a fitted effect of over 60% in size
# TEST SETTINGS: MCC and control cell lines, CellTiter-Glo viability, 72 h; series mostly up to 46 µM
Results filed as inconclusive are left out. The source made the active and inactive calls. The call rests on the fitted dose curve; in most records, active means well fitted inhibition curve with a large enough effect; inconclusive means small, poorly fitted or top-dose-only effect; inactive means flat fitted curve, though single readings scatter.
Would you mind answering with one of these outcomes? active, inactive

Observe how each entry below is paired with its result.
# MOLECULE, LABEL
data = [
    ("Cc1cccc(-c2[nH]ncc2-c2ccc3ncccc3n2)n1", "inactive"),
    ("COc1cc(OC)c(C(=O)CCCN2CCCC2)c(OC)c1", "inactive"),
    ("Clc1ccc(C(Cn2ccnc2)OCc2ccsc2Cl)c(Cl)c1 (centres undefined)", "inactive"),
    ("Nc1cccc2c1CN(C1CCC(=O)NC1=O)C2=O (centres undefined)", "inactive"),
    ("O=C1c2c(O)cc(O)cc2OC(c2ccc(O)c(O)c2)C1O (centres undefined)", "inactive"),
    ("O=C1c2ccccc2-c2n[nH]c3cccc1c23", "active"),
    ("c1cnc2cc3c(cc2n1)C1CNCC3C1", "inactive"),
    ("COc1ccc(C2(C#N)CCC(C(=O)O)CC2)cc1OC1CCCC1 (centres undefined)", "inactive"),
]

Request: # lookup: test call for CC(C)c1ccc2c(c1)c(SC(C)(C)C)c(CC(C)(C)C(=O)O)n2Cc1ccc(Cl)cc1
Result: inactive

Request: Similarly, CCCCC(CC)COC(=O)C(C#N)=C(c1ccccc1)c1ccccc1 (centres undefined) ?
Result: inactive
